Test system: HCT-116 human colorectal carcinoma
Assay type: cell-based
Square brackets hold non-standard residues; d marks the D form. Peptide text beside a SMILES is read from it. * marks the point of attachment. Palmitoyl = CCCCCCCCCCCCCCCC(=O)*; Dab = NCC[C@H](N)C(=O)O; Dap = NC[C@H](N)C(=O)O
Value type: IC50, HCT-116 (48h) (µg/mL)
Write down the numeric answer in µg/mL and omit the unit.

# example entries with known answers
Molecule	IC50, HCT-116 (48h) / µg/mL
CCCCCCCCCCCCCCCC(=O)NCC[C@H](NC(=O)[C@H](CCCCN)NC(=O)[C@@H](N)CCCCN)C(=O)N[C@@H](CCCCN)C(=O)N[C@@H](CCCCN)C(N)=O [KK(DabC16)KK-NH2] (H-KK[Dab](Palmitoyl)KK-NH2)	16.74
CCCCCCCCCCCCCCCC(=O)NCCC[C@H](NC(=O)[C@@H](N)CCCCN)C(=O)N[C@@H](CCCCN)C(N)=O [K(OC16)K-NH2]	18.07

Entry CCCCCCCCCCCCCCCC(=O)NC[C@H](NC(=O)[C@H](CCCCN)NC(=O)[C@@H](N)CCCCN)C(=O)N[C@@H](CCCCN)C(=O)N[C@@H](CCCCN)C(N)=O [KK(DapC16)KK-NH2] (H-KK[Dap](Palmitoyl)KK-NH2) ; IC50, HCT-116 (48h) = 23.05
